Tested on: Erythrocyte beta receptor
Experiment: Free energy of binding to turkey erythrocyte beta receptor
Set-up: unit not given here
Details: Meleagris gallopavo
Recorded endpoint: Delta G
Write the number on its own, no unit after it.

Known Delta G results, listed for orientation:
### Prompt Respond only with Delta G recorded for "CC(C)NC[C@H](O)COc1ccc(O)cc1"
### Response -8.91

### Prompt Provide only the value of recorded Delta G for "CC(C)NC[C@H](O)COc1ccc(O)c(O)c1"
### Response -9.13

### Prompt Entry CC(C)NCC(O)c1ccc(O)c(O)c1 (configuration not stated) needs its Delta G filled in; supply it.
### Response -9.18

### Prompt Given "CC(C)NC[C@H](O)COc1ccccc1I" , respond with its Delta G.
### Response -12.8

### Prompt Look up Delta G of "CS(=O)(=O)Nc1cc([C@@H](O)CNC2CC2)ccc1O" and report it.
### Response -8.19

### Prompt Quote Delta G reported for "C=CCc1cccc(OC[C@@H](O)CNC(C)C)c1" please.
### Response -8.82

The record that follows has no Delta G shown yet.
### Prompt Provide Delta G value for the following molecule: COc1ccc(CC(C)NC[C@H](O)c2ccc(O)c(CO)c2)cc1 (some centres not stated)
### Response -7.65
